Conditions: in 2-butanone, 313.15 K
measured attribute: solubility (mole fraction)
# respond with the number and nothing more

Entry under test: "CC(=O)N[C@@H](C)C(=O)O" . Its solubility (mole fraction) was 0.03

###

Details: in n-butyl acetate, 318.15 K
measured attribute: solubility (mole fraction)

For reference, reported solubility (mole fraction) for "CC(=O)N[C@@H](C)C(=O)O" stands at 0.00771

###

Details: in acetonitrile, 293.15 K
measured attribute: solubility (mole fraction)

# solubility (mole fraction) of "CC(=O)N[C@@H](C)C(=O)O" = 0.00871

###

Conditions: in isopropanol, 283.15 K
measured attribute: solubility (mole fraction)
// keep it numeric: no unit symbol after the value

The value of solubility (mole fraction) measured for the molecule "CC(=O)N[C@@H](C)C(=O)O" turned out to be 0.0781
